Organism: Rattus norvegicus
Experiment: DrugMatrix - Regimen: Daily Repeat
Type: toxicity, organism-based, Sprague-Dawley
Design: regimen Daily Repeat, gender Male, age 6-8 weeks
Conditions: in vivo, iv, 0 mg/kg, 72 h, tissue Blood, dose level Control, time 3 day, vehicle 100 % SALINE
quantity.measured: LEUKOCYTE COUNT (x10E3/uL)
Give bare numbers, in x10E3/uL.

Observe how each entry below is paired with its result.
INSERT INTO measurements (record_smiles, readout_units, endpoint_value) VALUES
  ('COC(=O)C[C@](O)(CCC(C)(C)O)C(=O)O[C@@H]1C(OC)=C[C@]23CCCN2CCc2cc4c(cc2[C@H]13)OCO4', 'x10E3/uL', 10.33),
  ('CC(=O)[C@]1(O)Cc2c(O)c3c(c(O)c2[C@@H](O[C@H]2C[C@H](N)[C@H](O)[C@H](C)O2)C1)C(=O)c1ccccc1C3=O', 'x10E3/uL', 14.97),
  ('CO[C@@]12[C@H](COC(N)=O)C3=C(C(=O)C(C)=C(N)C3=O)N1C[C@@H]1N[C@@H]12', 'x10E3/uL', 7.45);

Field request: LEUKOCYTE COUNT | item: "Cc1c(N)nc([C@H](CC(N)=O)NC[C@H](N)C(N)=O)nc1C(=O)N[C@H](C(=O)N[C@H](C)[C@@H](O)[C@H](C)C(=O)N[C@H](C(=O)NCCc1nc(-c2nc(C(=O)NCCC[S+](C)C)cs2)cs1)[C@@H](C)O)[C@@H](O[C@@H]1O[C@@H](CO)[C@@H](O)[C@H](O)[C@@H]1O[C@H]1O[C@H](CO)[C@@H](O)[C@H](OC(N)=O)[C@@H]1O)c1c[nH]cn1.[Br-]"
13.68
